These data points were gathered from patent US20090143285A1.

Target: FLJ41991-derived protein (Homo sapiens, UniProt P57764, E293G)
Construct: His-tag (N); made in house; host or cells: Escherichia coli BL21star(DE3)pLysS (pDEST17)
Sequence (P57764 265-484 E293G): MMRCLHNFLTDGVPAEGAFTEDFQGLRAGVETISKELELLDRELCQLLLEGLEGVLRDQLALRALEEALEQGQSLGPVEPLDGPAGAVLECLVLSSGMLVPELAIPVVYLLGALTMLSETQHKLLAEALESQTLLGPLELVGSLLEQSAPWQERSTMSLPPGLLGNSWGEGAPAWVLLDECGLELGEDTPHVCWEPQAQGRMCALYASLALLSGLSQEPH
Experiment: SEC/MS interaction analysis, FLJ41991-derived protein (GSDMDC1)
Format: binding
Conditions: compound 62.5 μM, protein 10 μM
# spectrum intensity of the compound in the SEC spin column filtrate per record follows
Measured property: spectrum intensity of the compound in the SEC spin column filtrate

CN(C)CC/C=C1/c2ccccc2Sc2ccc(Cl)cc21 = 626223
OCCN1CCN(CCCN2c3ccccc3Sc3ccc(Cl)cc32)CC1 = 695158
CCN(CC)CCCC(C)Nc1c2ccc(Cl)cc2nc2ccc(OC)cc12 (stereo not shown) = 1080431
CC(C)(C)c1ccc(C(O)CCCN2CCC(C(O)(c3ccccc3)c3ccccc3)CC2)cc1 (stereo not shown) = 5619658
OC(c1cc(C(F)(F)F)nc2c(C(F)(F)F)cccc12)C1CCCCN1 (stereo not shown) = 2017157
CN(C)C(=O)C(CCN1CCC(O)(c2ccc(Cl)cc2)CC1)(c1ccccc1)c1ccccc1 [loperamide] = 6073080
CN1[C@@H]2CC[C@H]1C[C@@H](OC(c1ccccc1)c1ccccc1)C2 = 2757526
OCCN1CCN(CCCN2c3ccccc3Sc3ccc(C(F)(F)F)cc32)CC1 = 3173659
COc1ccc(CCN2CCC(Nc3nc4ccccc4n3Cc3ccc(F)cc3)CC2)cc1 = 2309029
O=C(c1ccc(OCCN2CCCCC2)cc1)c1c(-c2ccc(O)cc2)sc2cc(O)ccc12 = 1091123
